Data origin: ChEMBL document CHEMBL4673335

test: Half life in C57BL/6 mouse ip dosed as single administration measured up to 24 hrs; details: in vivo
Property Measured: half-life (h)

- Compound: "CCCC(C)OC(=O)c1cnn(-c2ccc(-n3cc(-c4cccc(C(=O)O)c4)nn3)cc2)c1C(F)(F)F (stereo unspecified)"
  Property Measured: "half-life"
  Observed Measurement: 1.3

====

test: Thermodynamic aqueous solubility; type: physicochemical; settings: read-out: Therm_solubility
solubility thermodynamic vs 1000 µg/mL: at or above is Satisfied, below is Not satisfied.

- Smiles Text: "COc1cc(OC)cc(-c2ccc(-n3cc(-c4cccc(C(=O)[O-])c4)nn3)cc2)c1.[Na+]"
  Class Name: "Not satisfied"
- Smiles Text: "COc1cccc(-c2ccc(-n3cc(-c4cccc(C(=O)[O-])c4)nn3)cc2)c1OC.[Na+]"
  Class Name: "Satisfied"
- Smiles Text: "O=C([O-])c1cccc(-c2cn(-c3ccc(-c4ccc5c(c4)OCCO5)cc3)nn2)c1.[Na+]"
  Class Name: "Not satisfied"
- Smiles Text: "COc1ccc(OC)c(-c2ccc(NC(=O)c3ccncc3F)cc2)c1"
  Class Name: "Not satisfied"
- Smiles Text: "COc1cccc(-c2ccc(-n3cc(-c4cccc(C(=O)[O-])c4)nn3)cc2)c1.[Na+]"
  Class Name: "Not satisfied"
- Smiles Text: "COc1ccc(F)c(-c2ccc(-n3cc(-c4cccc(C(=O)[O-])c4)nn3)cc2)c1.[Na+]"
  Class Name: "Satisfied"
